- Test system: PSA
- Protocol text: Time required for PSA to hydrolyze 50% compound at a molar ratio of 1:100
- Assay type: ADME
- Assay context: PSA (enzyme)
Property measured: half-life (min)
Please give a number only; it is taken to be in min.

Input: Please look up its half-life: CC[C@]1(O)C[C@@H]2CN(CCc3c([nH]c4ccccc34)[C@@](C(=O)OC)(c3cc4c(cc3OC)N(C)C3C45CCN4CC=C[C@](CC)(C45)[C@@H](OC(=O)[C@H](CC(C)C)NC(=O)[C@H](CO)NC(=O)[C@H](CCC(N)=O)NC(=O)C(NC(=O)[C@H](CO)NC(=O)[C@H](CO)NC(=O)[C@H]4CC(O)CN4C(C)=O)C4CCCCC4)[C@]3(O)C(=O)OC)C2)C1.O=C(O)C(F)(F)F (stereo partly specified)
Output: 35
